// provenance: PubChem BioAssay (NCI)

- Test system: HCT-15 colon
- method-description: NCI-60 one-dose screen, 48 h (100 = growth as untreated, 0 = no growth, -100 = all killed)
- assay-setup: 10 µM unless noted
About 83,000 compounds went through this panel and 20% of them were active in at least one assay; those are over-represented in the sample as a whole.
attribute-measured: growth (%)
Form entry: value (%) — number only.

- COCCn1cc(-c2csc(-c3c[nH]c4ccc(F)cc34)n2)c2cccnc21: 14.7
- Cc1ccc(OCCOCCOCCOCCOCCOc2ccc(C)n(O)c2=S)c(=S)n1O: 29
- O=C(N/N=C/c1ccc(Cl)cc1)c1ccc(NC(=O)c2ccccn2)cc1: 62.8
- O=C(NCCN1CCOCC1)OCc1ccc2c(Cl)cc(Cl)c(O)c2n1: 19.5
- Cc1nc2sc(C(=O)Nc3ccccn3)c(N)c2cc1C(C)O (stereo unspecified): 36.4

Turning now to a further compound:
[ask] Reported growth, compound O=C(Nc1cc(Cl)ccc1O)c1ccccc1Nc1ccnc(C(F)(F)F)c1 : ____
[reply] 14.1

* * *

- Test system: HOP-92 NSCLC
- method-description: NCI-60 one-dose screen, 48 h
- assay-setup: 10 µM unless noted
- Description: Growth inhibition of the HOP-92 human Non-Small Cell Lung tumor cell line is measured as a screen for anti-cancer activity. Cells are grown in 96 well plates and exposed to the test compound for 48 hours. Compounds are tested at a single concentration, which is 10^-5 M for most compounds. The reported endpoint is percent growth (GI% or GIPRCNT), where numbers from 0 - 100% represent growth inhibition, and numbers from -100% - 0 represent cell death. […]
This is part of a sample that, as a whole, favours compounds with a hit. Of some 83,000 tested, about 20% had one in any assay. The source made the active and inactive calls. Rule for the calls: active = growth percent below 10; inactive = the rest.
The reply should name one outcome from active, inactive

• COc1cc(/C=C/c2cc(/C=C/c3ccc(O)c(OC)c3)n(C(=O)Nc3ccc(Cl)cc3)n2)ccc1O = active
• Oc1c(I)cc(I)cc1CN(Cc1ccccn1)Cc1ccccn1 = inactive
• O=[N+]([O-])c1ccccc1Sc1ccccc1[N+](=O)[O-] = inactive
• CCn1cc(C(=O)N/N=C/c2cccc(F)c2)c(=O)c2cc(F)c(N3CCNC(C)C3)c(F)c21 (centres undefined) = inactive
• CN(C)CCCC1(c2ccc(F)cc2)OCc2cc(-c3csc4ccccc34)ccc21 (centres undefined) = inactive

[ask] # outcome recorded in this test, key = C=C1C(=O)O[C@H]2[C@H]1CC/C(CNC(=O)Cc1c[nH]c3ccccc13)=C\CC[C@@]1(C)O[C@@H]21
[reply] inactive

[ask] Then COc1ccc(-c2cc(-c3cc(OC)ccc3OC)nc(SCC(C)=O)c2C#N)cc1 ?
[reply] inactive

[ask] Can you check CC(C)=CC(=O)N[C@H]1CC[C@]2(C)C3CC[C@]4(C)C(C(C)N(C)C)=CCC4C3CCC2[C@H]1O (some centres undefined) next?
[reply] inactive

[ask] Then what about the compound CC1(/C=C/c2ccc(-c3ccccc3)cc2)CCn2cnc3ncnc(c32)N1O (centres undefined) ?
[reply] inactive

* * *

- System: IGROV1 ovarian
- method-description: NCI-60 one-dose screen, 48 h
- assay-setup: 10 µM unless noted
The panel holds about 83,000 compounds, 20% with a hit somewhere; the sample as a whole holds those more often. Calls of active or inactive are those of the source. Rule for the calls: active = growth percent below 10; inactive = the rest.
One label from this list, please: label 1 for active, label 0 for inactive

The following compounds have reported results that may help.
• Clc1cccc(C2Cc3cnccc3-c3[nH]c4ccncc4c32)c1 (stereo not drawn) = label 0
• Cn1cc(-c2csc(-c3cn(C)c4ccccc34)n2)c2cnccc21 = label 0
• N#C/C(=C\c1ccc(-c2cccc(Cl)c2)o1)C(=O)Nc1ncc(Cc2ccc(Cl)cc2)s1 = label 0
• O=C(Nc1ccc(Oc2cccc(Cl)c2)c(Cl)c1)c1cccnn1 = label 0
• CCN(CC)CCCC(Cc1ccccc1)Nc1c2ccc(Cl)cc2nc2ccc(OC)cc12 (stereo not drawn) = label 0

[ask] Hello, I am checking results. What call was entered for CC[C@@H](C(=O)[C@@H](C)[C@@H](O)[C@H](C)[C@@H]1O[C@@H]([C@@H](CC)C(=O)ONC(=O)c2ccccc2O)CC[C@@H]1C)C1O[C@]2(C=CC(=O)[C@]3(CC[C@@](C)([C@H]4CC[C@](O)(CC)[C@H](C)O4)O3)O2)[C@H](C)C[C@@H]1C (stereo partly drawn) ?
[reply] label 0

[ask] Entry COc1cc(/C=C2\C(=O)N(CCCOc3cc(O)c4c(=O)cc(-c5ccccc5)oc4c3)c3ccccc32)cc(OC)c1O please
[reply] label 0

[ask] // query: Cc1ccc2c(/C=C/C(=O)c3cc(CN4CCOCC4)c(O)c4nc(C)ccc34)cc(CN3CCOCC3)c(O)c2n1
[reply] label 1

* * *

- Tested on: BT-549 breast
- method-description: NCI-60 one-dose screen, 48 h (100 = growth as untreated, 0 = no growth, -100 = all killed)
- assay-setup: 10 µM unless noted
This is part of a sample that, as a whole, favours compounds with a hit. Of some 83,000 tested, about 20% had one in any assay.
Entries annotated with measured growth
State just the number; it will be interpreted in %.

Example entries begin here.
• O=C(/C=C/c1ccccc1Cl)c1cccc(OCCCCOc2cccc(C(=O)/C=C/c3ccccc3Cl)c2)c1 = 116
• C=C1SC(=Nc2ccccc2Cl)N(C(=O)c2sc3ccccc3c2Cl)C1(C)C = 85.2

[ask] What value of growth on BT-549 breast does Clc1cccc(C2Cc3cnccc3-c3[nH]c4ccncc4c32)c1 (centres undefined) have?
[reply] 50.1

* * *

- Tested on: SK-MEL-5 melanoma
- method-description: NCI-60 one-dose screen, 48 h (100 = growth as untreated, 0 = no growth, -100 = all killed)
- assay-setup: 10 µM unless noted
About 83,000 compounds went through this panel and 20% of them were active in at least one assay; those are over-represented in the sample as a whole.
Below, each entry is listed alongside its reported growth.
A number alone suffices; assume %.

Some solved entries appear below for comparison.
* C(=C(\C1=NCCN1)n1ccc2ccccc21)/c1ccccc1 | 98.3
* Cc1nc2sc(C(=O)Nc3ccccn3)c(N)c2cc1C(C)O (centres undefined) | 45
* COc1cc(-c2ccc(-c3ccc(C(=N)N)cc3)s2)cc(OC)c1OC | 55.3
* O=c1cc(-c2ccccc2)nc(SCc2nc3cc(Cl)c(Cl)cc3[nH]2)[nH]1 | 105
* CCOC(=O)c1c(C)nc2c(c1N)C(=O)C(=O)N2Cc1ccc(OC)cc1 | 81

[ask] Please give the measured growth for this compound: C=C(C)[C@@H]1CC[C@]2(COC3CCCCO3)CC[C@]3(C)[C@H](CC[C@@H]4[C@@]5(C)C=C(C=O)C(=O)C(C)(C)[C@@H]5CC[C@]43C)[C@@H]12 (some centres undefined)
[reply] -97.5

[ask] Query CCN(CCNc1ccc(C)c2sc3cc(Cl)ccc3c(=O)c12)CC(C)(C)O next
[reply] 63.4

* * *

- Tested on: K-562 leukemia
- method-description: NCI-60 one-dose screen, 48 h
- assay-setup: 10 µM unless noted
About 83,000 compounds went through this panel and 20% of them were active in at least one assay; those are over-represented in the sample as a whole. Calls of active or inactive are those of the source. Rule for the calls: active = growth percent below 10; inactive = the rest.
Respond using exactly one of the listed classes: T = active, F = inactive

• CC(C)n1c2ccc(Br)cc2c2c3c(c4c5ccccc5ccc4c21)C(=O)NC3=O = F
• O=c1cc(CP(=O)(O)O)c2cc(O)c(-c3ccccc3)cc2o1 = F
• O=c1oc2c(cc1-c1ccccc1)c[n+]([O-])c1ccccc21 = F
• O=C(NCCNC(c1ccccc1)C(NCCNC(=O)c1ccccc1)c1ccccc1)c1ccccc1 (stereo not given) = F

Here's the next entry for you.
[ask] Dear all, I need the recorded test outcome for c1cc(OCCCCCOc2cccc(-c3nc4ccccc4[nH]3)c2)cc(-c2nc3ccccc3[nH]2)c1 , thank you.
[reply] T

* * *

- Test system: NCI-H23 lung
- method-description: NCI-60 one-dose screen, 48 h
- assay-setup: 10 µM unless noted
- Protocol: Growth inhibition of the NCI-H23 human Non-Small Cell Lung tumor cell line is measured as a screen for anti-cancer activity. Cells are grown in 96 well plates and exposed to the test compound for 48 hours. Compounds are tested at a single concentration, which is 10^-5 M for most compounds. The reported endpoint is percent growth (GI% or GIPRCNT), where numbers from 0 - 100% represent growth inhibition, and numbers from -100% - 0 represent cell death. […]
About 83,000 compounds went through this panel and 20% of them were active in at least one assay; those are over-represented in the sample as a whole. Activity calls are given as the source filed them. The calls were made as follows: active = growth percent below 10; inactive = the rest.
Tick one outcome: yes = active, no = inactive

Field: example entries. Status: answers known.
- O=C1c2cccnc2C(=O)c2c1c(C(=O)OCCc1ccccn1)c1ccccn21: yes
- Cc1nn(-c2ccc([N+](=O)[O-])cc2)c2ncnc(N/N=C/c3ccccc3O)c12: no
- Clc1ccc(Nc2ncc(Cc3cccc(Cl)c3Cl)s2)cc1: no
- COc1cc(O)c2c(=O)c3c(CC=C(C)C)cc(OC)c(O)c3oc2c1: no

[ask] How was c1cc(OCCCCCOc2cccc(-c3nc4ccccc4[nH]3)c2)cc(-c2nc3ccccc3[nH]2)c1 classified in this test?
[reply] yes

[ask] Same again, this time with N#Cc1nn(-c2cc(=O)[nH]c3ccc(Br)cc23)c(N)c1C#N
[reply] no

[ask] Another compound to look at: CCN1C2CCC1/C(=C\c1ccccc1)C(=O)/C2=C/c1ccccc1
[reply] no

[ask] Thanks! And CN1C(=O)N2CN3CCCN(C3)CN3C(=S)NC1C23 (stereo not given) ?
[reply] no

[ask] Also N#Cc1c(-c2cccc(Cl)c2)cc(-c2cccnc2)[nH]c1=O ?
[reply] no

[ask] Moving on to CN(C)CCCn1c2c(c3cnccc3c1=O)C(=O)c1ccccc1-2
[reply] yes
